Measured GI50 of individual entries
- System: NCI-H460
- Test Description: NCI tumour cell line growth inhibition, 48 h
Activity calls are given as the source filed them. Rule as the data show it: active = GI50 up to about 1.1 µM and inactive = higher.

Solved entries (count: 2):
Specify GI50 for CC(=O)Nc1ccc(-c2nnc(SCC(=O)Nc3ccccc3[N+](=O)[O-])o2)cc1 , system NCI-H460.
> 100 µM (inactive)

Specify GI50 for COC(=O)c1c(C)[n+]([O-])c2cc(Cl)c(Cl)cc2[n+]1[O-] , system NCI-H460.
5.38 µM (inactive)

Then this molecule:
Specify GI50 for CCCc1c(OC)c(=O)c2c(OC)cc(OC)c3c4c(OC)cc(OC)c5c(=O)c(OC)c(CCC)c(c1c23)c54 , system NCI-H460.
13.7 µM (inactive)
